Below are MIC values recorded for Staph. aureus C-5216.
observation_type: MIC (µg/mL)

Solved cases (3 shown):
[[record]]
molecule = "CC(C)(O/N=C(\\C(=O)N[C@@H]1C(=O)N2C(C(=O)[O-])=C(C[n+]3ccccc3)CS[C@H]12)c1csc(N)n1)C(=O)O [CAZ, Ceftazidime, reference compound]"
result = 25

[[record]]
molecule = "CON=C(C(=O)NC1C(=O)N2C(C(=O)[O-])=C(C[n+]3ccn4c(C(N)=O)ccc4c3)CSC12)c1csc(N)n1 (stereo not drawn)"
result = 0.78

[[record]]
molecule = "CON=C(C(=O)NC1C(=O)N2C(C(=O)[O-])=C(C[n+]3ccn4c(SCCN)ccc4c3)CSC12)c1csc(N)n1 (stereo not drawn)"
result = 0.78


a = CO/N=C(\C(=O)N[C@@H]1C(=O)N2C(C(=O)[O-])=C(C[n+]3ccn4c(C(C)=O)cc(Cl)c4c3)CS[C@H]12)c1csc(N)n1
b = CC(C)(ON=C(C(=O)NC1C(=O)N2C(C(=O)[O-])=C(C[n+]3ccn4cccc4c3)CSC12)c1csc(N)n1)C(=O)O (stereo not drawn)
c = CCON=C(C(=O)NC1C(=O)N2C(C(=O)[O-])=C(C[n+]3ccn4ccc(CO)c4c3)CSC12)c1csc(N)n1 (stereo not drawn)
Given 3 molecules, produce a descending ranking by MIC. I would appreciate it if you listed the labels in the requested order.
b, c, a

###

Below are MIC values recorded for Staph. aureus C-5216.
observation_type: MIC (µg/mL)

[[record]]
molecule = "CO/N=C(\\C(=O)N[C@@H]1C(=O)N2C(C(=O)[O-])=C(C[n+]3cc(C(=O)O)n4cccc4c3)CS[C@H]12)c1csc(N)n1"
result = 1.56

[[record]]
molecule = "CCO/N=C(\\C(=O)N[C@@H]1C(=O)N2C(C(=O)[O-])=C(C[n+]3ccn4cccc4c3C)CS[C@H]12)c1csc(N)n1"
result = 1.56


A = CON=C(C(=O)NC1C(=O)N2C(C(=O)[O-])=C(C[n+]3ccn4c(C#N)ccc4c3)CSC12)c1csc(N)n1 (stereo not shown)
B = CO/N=C(\C(=O)N[C@@H]1C(=O)N2C(C(=O)[O-])=C(C[n+]3ccn4c(C(C)O)ccc4c3)CS[C@H]12)c1nsc(N)n1 (stereo partly shown)
// compare measured MIC between A and B ; output the lower one To answer, give the label that identifies your chosen option.
A
(A: 0.78 µg/mL, B: 1.56 µg/mL)

###

Test system: Ps. aeruginosa DY-2
Assay: MIC by agar dilution, Ps. aeruginosa DY-2
Type: cell-based
Settings: Pseudomonas aeruginosa, DY2, 17 h; Ps. aeruginosa DY-2; agar dilution, Mueller-Hinton agar; read-out: Minimal Inhibitory Concentration (MIC)
observation_type: MIC (µg/mL)

Solved cases (3 shown):
[[record]]
compound = "Nc1nc(C(=NOCF)C(=O)NC2C(=O)N3C(C(=O)[O-])=C(C[n+]4ccn5c(CO)ccc5c4)CSC23)cs1 (centres unmarked)"
system = "Ps. aeruginosa DY-2"
observation_type = "MIC"
result = 1.56

[[record]]
compound = "CO/N=C(\\C(=O)N[C@@H]1C(=O)N2C(C(=O)[O-])=C(C[n+]3ccn4cccc4c3)CS[C@H]12)c1nc(N)sc1Cl"
system = "Ps. aeruginosa DY-2"
observation_type = "MIC"
result = 3.13

[[record]]
compound = "Nc1nc(/C(=N/OCF)C(=O)N[C@@H]2C(=O)N3C(C(=O)[O-])=C(C[n+]4ccn5ccc(CO)c5c4)CS[C@H]23)cs1"
system = "Ps. aeruginosa DY-2"
observation_type = "MIC"
result = 3.13


P = CO/N=C(\C(=O)N[C@@H]1C(=O)N2C(C(=O)[O-])=C(C[n+]3ccn4c(SCCO)ccc4c3)CS[C@H]12)c1nsc(N)n1
Q = CCO/N=C(\C(=O)N[C@@H]1C(=O)N2C(C(=O)[O-])=C(C[n+]3ccn4c(C(C)=O)cc(Cl)c4c3)CS[C@H]12)c1csc(N)n1
// compare measured MIC between P and Q ; output the lower one To answer, give the label that identifies your chosen option.
P
(P: 6.25 µg/mL, Q: 25 µg/mL)

I = CCON=C(C(=O)NC1C(=O)N2C(C(=O)[O-])=C(C[n+]3ccn4ccc(CO)c4c3)CSC12)c1csc(N)n1 (centres unmarked)
II = CO/N=C(\C(=O)N[C@@H]1C(=O)N2C(C(=O)[O-])=C(C[n+]3ccn4c(CO)ccc4c3)CS[C@H]12)c1nsc(N)n1
Which of the two items, I and II , has the greater recorded MIC? To answer, give the label that identifies your chosen option.
I

###

Test system: M. morganii DY-1
Assay: MIC by agar dilution, M. morganii DY-1
Type: cell-based
Details: Morganella morganii, DY1, 17 h; M. morganii DY-1; agar dilution, Mueller-Hinton agar; read-out: Minimal Inhibitory Concentration (MIC)
observation_type: MIC (µg/mL)

[[record]]
compound = "CON=C(C(=O)NC1C(=O)N2C(C(=O)[O-])=C(C[n+]3ccn4c(C(C)O)ccc4c3)CSC12)c1csc(N)n1 (centres unmarked)"
observation_type = "MIC"
measurement_units = "µg/mL"
result = 0.012


I = Nc1nc(/C(=N/OCF)C(=O)N[C@@H]2C(=O)N3C(C(=O)[O-])=C(C[n+]4ccn5ccc(CO)c5c4)CS[C@H]23)cs1
II = CO/N=C(\C(=O)N[C@@H]1C(=O)N2C(C(=O)[O-])=C(C[n+]3ccn4cccc4c3C)CS[C@H]12)c1csc(N)n1
Which of the two items, I and II , has the greater recorded MIC? To answer, give the label that identifies your chosen option.
I
(I: 0.025 µg/mL, II: 0.012 µg/mL)

1 = CON=C(C(=O)NC1C(=O)N2C(C(=O)[O-])=C(C[n+]3ccn4ccc(CO)c4c3)CSC12)c1csc(N)n1 (centres unmarked)
2 = CCON=C(C(=O)NC1C(=O)N2C(C(=O)[O-])=C(C[n+]3ccn4c(C(C)=O)ccc4c3)CSC12)c1csc(N)n1 (centres unmarked)
Which of the two items, 1 and 2 , has the greater recorded MIC? To answer, give the label that identifies your chosen option.
2
(2: 0.025 µg/mL, 1: 0.012 µg/mL)

###

Tested on: M. morganii DY-1
Assay: MIC by agar dilution, M. morganii DY-1
Type: cell-based
Conditions: Morganella morganii, DY1, 17 h; M. morganii DY-1; agar dilution, Mueller-Hinton agar; read-out: Minimal Inhibitory Concentration (MIC)
observation_type: MIC (µg/mL)

[[record]]
compound = "CO/N=C(\\C(=O)N[C@@H]1C(=O)N2C(C(=O)[O-])=C(C[n+]3ccn4c(Br)ccc4c3C)CS[C@H]12)c1nsc(N)n1"
system = "M. morganii DY-1"
result = 0.025


a = CO/N=C(\C(=O)N[C@@H]1C(=O)N2C(C(=O)[O-])=C(C[n+]3ccn4c(CO)ccc4c3C)CS[C@H]12)c1nc(N)sc1Cl
b = CCON=C(C(=O)NC1C(=O)N2C(C(=O)[O-])=C(C[n+]3ccn4c(Cl)ccc4c3)CSC12)c1csc(N)n1 (stereo not shown)
Which of the two items, a and b , has the greater recorded MIC? To answer, give the label that identifies your chosen option.
a
(a: 0.39 µg/mL, b: 0.025 µg/mL)

I = CO/N=C(\C(=O)N[C@@H]1C(=O)N2C(C(=O)[O-])=C(C[n+]3ccn4c(CO)ccc4c3)CS[C@H]12)c1nc(N)sc1Cl
II = CO/N=C(\C(=O)N[C@@H]1C(=O)N2C(C(=O)[O-])=C(C[n+]3ccn4cccc4c3C)CS[C@H]12)c1nc(N)sc1Cl
III = CO/N=C(\C(=O)N[C@@H]1C(=O)N2C(C(=O)[O-])=C(C[n+]3ccn4cccc4c3)CS[C@H]12)c1nsc(N)n1
IV = CCON=C(C(=O)NC1C(=O)N2C(C(=O)[O-])=C(C[n+]3ccn4c(SCCO)ccc4c3)CSC12)c1csc(N)n1 (stereo not shown)
V = CON=C(C(=O)NC1C(=O)N2C(C(=O)[O-])=C(C[n+]3ccn4c(C(=O)O)ccc4c3)CSC12)c1csc(N)n1 (stereo not shown)
Given 5 compounds, produce a descending ranking by MIC. I would appreciate it if you listed the labels in the requested order.
II, I, III, V, IV
(II: 0.39 µg/mL, I: 0.1 µg/mL, III: 0.05 µg/mL, V: 0.025 µg/mL, IV: 0.012 µg/mL)

###

Tested on: Ser. marcescens IFO 12648
Assay: MIC by agar dilution, Ser. marcescens IFO 12648
Assay type: cell-based
Conditions: Serratia marcescens, IFO12648, 17 h; Ser. marcescens IFO 12648; agar dilution, Mueller-Hinton agar; read-out: Minimal Inhibitory Concentration (MIC)
observation_type: MIC (mg/L)

Solved cases (3 shown):
[[record]]
molecule = "CCON=C(C(=O)NC1C(=O)N2C(C(=O)[O-])=C(C[n+]3ccn4c(SCCO)ccc4c3)CSC12)c1csc(N)n1 (stereo not shown)"
system = "Ser. marcescens IFO 12648"
result = 0.05

[[record]]
molecule = "CON=C(C(=O)NC1C(=O)N2C(C(=O)[O-])=C(C[n+]3ccn4c(C(=O)O)ccc4c3)CSC12)c1csc(N)n1 (stereo not shown)"
system = "Ser. marcescens IFO 12648"
result = 0.05

[[record]]
molecule = "CON=C(C(=O)NC1C(=O)N2C(C(=O)[O-])=C(C[n+]3ccn4c(CO)ccc4c3)CSC12)c1csc(N)n1 (stereo not shown)"
system = "Ser. marcescens IFO 12648"
result = 0.012


P = Nc1nc(C(=NOCF)C(=O)NC2C(=O)N3C(C(=O)[O-])=C(C[n+]4ccn5c(SCCO)ccc5c4)CSC23)cs1 (stereo not shown)
Q = CO/N=C(\C(=O)N[C@@H]1C(=O)N2C(C(=O)[O-])=C(C[n+]3ccn4c(C(C)=O)cc(Cl)c4c3)CS[C@H]12)c1csc(N)n1
R = CCO/N=C(\C(=O)N[C@@H]1C(=O)N2C(C(=O)[O-])=C(C[n+]3ccn4c(Br)ccc4c3C)CS[C@H]12)c1csc(N)n1
Endpoint returns the given molecules ordered by ascending MIC. I would appreciate it if you listed the labels in the requested order.
P, Q, R
